test: Pharmacokinetics in cynomolgus monkey; assay type: in vivo; details: in vivo, IV infusion (15 min), 1 mg/kg, read-out: T1/2 (converted)
Starred links: 1 amine or outer side, 2 acyl side, 3 side chain; linkers in the order of their positions; H or OH if unused. Positions of bridges follow the written chain, without caps; N, C: chain ends. Non-standard residues stand in square brackets, D forms with d. Chains are numbered I, II in the order given. X1 = O=C(CCOCCOCCOCCN(CCOCCOCCOCCn1cc(CCC(=O)[*:2])nn1)CCOCCOCCOCCn1cc(CCC(=O)[*:3])nn1)[*:1]; TATA = O=C(CC[*:1])N1CN(C(=O)CC[*:2])CN(C(=O)CC[*:3])C1; Hyp = O=C(O)[C@@H]1C[C@@H](O)CN1; hArg = N=C(N)NCCCC[C@H](N)C(=O)O; tBuAla = CC(C)(C)C[C@H](N)C(=O)O; Nle = CCCC[C@H](N)C(=O)O
Property Label: half-life (h)

Substance	Output Unit	Data Value
I: A[hArg]DC[Hyp]LVNPLCLHP[dD]W[hArg]C-NH2 / II: Ac-C[tBuAla]PE[dK]PYCFADPY[Nle]CA-NH2 / III: Ac-C[tBuAla]PE[dK]PYCFADPY[Nle]CA-NH2 (linker I:4-I:11-I:18, II:1-II:8-II:15, III:1-III:8-III:15 via TATA; linker I:N-II:5-III:5 via X1) [BCY12491]	h	3.2
